Data origin: ChEMBL document CHEMBL1128053

Molecular target: Interstitial collagenase (Homo sapiens, UniProt P03956)
Sequence (P03956 whole entry): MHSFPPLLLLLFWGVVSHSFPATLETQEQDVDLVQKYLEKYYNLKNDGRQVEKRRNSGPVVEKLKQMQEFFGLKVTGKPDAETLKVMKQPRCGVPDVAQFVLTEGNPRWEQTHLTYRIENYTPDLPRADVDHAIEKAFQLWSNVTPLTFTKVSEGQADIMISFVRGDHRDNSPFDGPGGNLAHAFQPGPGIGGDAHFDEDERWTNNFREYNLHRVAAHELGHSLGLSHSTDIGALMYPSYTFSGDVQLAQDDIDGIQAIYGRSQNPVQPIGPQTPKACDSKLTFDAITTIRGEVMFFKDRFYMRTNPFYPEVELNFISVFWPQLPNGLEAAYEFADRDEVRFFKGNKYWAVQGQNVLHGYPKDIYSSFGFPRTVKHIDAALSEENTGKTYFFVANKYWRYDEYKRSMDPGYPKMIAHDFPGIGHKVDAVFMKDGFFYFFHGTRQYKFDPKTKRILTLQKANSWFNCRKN
MEASURED_METRIC: Ki

# Ki of CC(C)C[C@H](NC(=O)[C@H](CCc1ccc(C(C)C)cc1)N[C@H](C)C(=O)O)C(=O)Nc1ccccc1 = > 10 µM

# Ki of COc1cccc(CC[C@H](N[C@H](C)C(=O)O)C(=O)N[C@@H](CC(C)C)C(=O)Nc2ccccc2)c1 = > 10 µM

# Ki of COc1ccc(CC[C@H](N[C@H](C)C(=O)O)C(=O)N[C@@H](CC(C)C)C(=O)Nc2ccccc2)cc1OC = > 10 µM

# Ki of CCCCc1ccc(CC[C@H](N[C@H](C)C(=O)O)C(=O)N[C@@H](CCCNC(=N)N)C(=O)Nc2ccccc2)cc1 = > 10 µM

# Ki of COc1ccccc1CC[C@H](N[C@H](C)C(=O)O)C(=O)N[C@@H](CC(C)C)C(=O)Nc1ccccc1 = > 10 µM
